Please provide measured total protein half-life in vivo for the entries that follow.
# measurement_description: total protein half-life in vivo (active degradation + dilution); higher = more stable protein
# measurement_context: wild type E. coli NCM3722; growth: P-lim chemostat; doubling time 12 h
Number only, in h; omit the unit.

I am curious: what total protein half-life in vivo value has been reported for MSKCSADETPVCCCMDVGTIMDNSDCTASYSRVFANRAEAEQTLAALTEKARSVESEPCKITPTFTEESDGVRLDIDFTFACEAEMLIFQLGLR [P0AD33] ?
8.88

Next sequence: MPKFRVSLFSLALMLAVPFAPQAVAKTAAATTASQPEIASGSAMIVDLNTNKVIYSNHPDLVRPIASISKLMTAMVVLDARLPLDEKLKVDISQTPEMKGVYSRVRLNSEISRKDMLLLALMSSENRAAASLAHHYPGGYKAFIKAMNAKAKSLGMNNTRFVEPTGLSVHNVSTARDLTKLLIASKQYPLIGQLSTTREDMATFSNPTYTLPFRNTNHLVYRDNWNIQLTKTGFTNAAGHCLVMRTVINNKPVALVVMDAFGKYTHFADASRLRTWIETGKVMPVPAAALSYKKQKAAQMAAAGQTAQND [P0AFI5]
5.78

Now consider "MIFLMTKDSFLLQGFWQLKDNHEMIKINSLSEIKKVGNKPFKVIIDTYHNHILDEEAIKFLEKLDAERIIVLAPYHISKLKAKAPIYFVSRKESIKNLLEITYGKHLPHKNSQLCFSHNQFKIMQLILKNKNESNITSTLNISQQTLKIQKFNIMYKLKLRRMSDIVTLGITSYF" .
6.16

Could you do the same for "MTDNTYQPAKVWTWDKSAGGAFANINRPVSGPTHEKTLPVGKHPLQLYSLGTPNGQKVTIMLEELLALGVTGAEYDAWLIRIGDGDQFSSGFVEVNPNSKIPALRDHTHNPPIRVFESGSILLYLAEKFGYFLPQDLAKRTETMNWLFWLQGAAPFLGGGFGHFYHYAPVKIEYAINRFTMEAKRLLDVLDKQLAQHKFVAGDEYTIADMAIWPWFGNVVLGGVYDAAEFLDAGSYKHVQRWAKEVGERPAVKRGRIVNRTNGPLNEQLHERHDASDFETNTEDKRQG" , please?
11.8

Lookup MHVKYLAGIVGAALLMAGCSSSNELSAAGQSVRIVDEQPGAECQLIGTATGKQSNWLSGQHGEEGGSMRGAANDLRNQAAAMGGNVIYGISSPSQGMLSSFVPTDSQIIGQVYKCPN [P0AF70]
11.7

Entry "MSKTFARSSLCALSMTIMTAHAAEPPTNLDKPEGRLDIIAWPGYIERGQTDKQYDWVTQFEKETGCAVNVKTAATSDEMVSLMTKGGYDLVTASGDASLRLIMGKRVQPINTALIPNWKTLDPRVVKGDWFNVGGKVYGTPYQWGPNLLMYNTKTFPTPPDSWQVVFVEQNLPDGKSNKGRVQAYDGPIYIADAALFVKATQPQLGISDPYQLTEEQYQAVLKVLRAQHSLIHRYWHDTTVQMSDFKNEGVVASSAWPYQANALKAEGQPVATVFPKEGVTGWADTTMLHSEAKHPVCAYKWMNWSLTPKVQGDVAAWFGSLPVVPEGCKASPLLGEKGCETNGFNYFDKIAFWKTPIAEGGKFVPYSRWTQDYIAIMGGR" please
13.8

====

Kindly supply the reported total protein half-life in vivo values for the records listed here.
# measurement_description: total protein half-life in vivo (active degradation + dilution); higher = more stable protein
# measurement_context: wild type E. coli NCM3722; growth: N-lim chemostat; doubling time 12 h

Consider the sequence shown here: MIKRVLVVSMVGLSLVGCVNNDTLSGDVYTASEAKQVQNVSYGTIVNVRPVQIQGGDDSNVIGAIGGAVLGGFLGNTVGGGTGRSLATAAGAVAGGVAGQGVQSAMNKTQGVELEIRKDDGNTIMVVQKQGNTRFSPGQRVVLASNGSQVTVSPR [P0A905] What is its recorded total protein half-life in vivo?
11.5 h

Try this sequence too: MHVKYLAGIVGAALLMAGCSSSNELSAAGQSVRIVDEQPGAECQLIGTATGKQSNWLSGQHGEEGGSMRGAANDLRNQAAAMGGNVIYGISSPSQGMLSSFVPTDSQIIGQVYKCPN [P0AF70]
12.9 h

Check "MSQVQSGILPEHCRAAIWIEANVKGEVDALRAASKTFADKLATFEAKFPDAHLGAVVAFGNNTWRALSGGVGAEELKDFPGYGKGLAPTTQFDVLIHILSLRHDVNFSVAQAAMEAFGDCIEVKEEIHGFRWVEERDLSGFVDGTENPAGEETRREVAVIKDGVDAGGSYVFVQRWEHNLKQLNRMSVHDQEMVIGRTKEANEEIDGDERPETSHLTRVDLKEDGKGLKIVRQSLPYGTASGTHGLYFCAYCARLHNIEQQLLSMFGDTDGKRDAMLRFTKPVTGGYYFAPSLDKLMAL" too.
4.17 h

Also "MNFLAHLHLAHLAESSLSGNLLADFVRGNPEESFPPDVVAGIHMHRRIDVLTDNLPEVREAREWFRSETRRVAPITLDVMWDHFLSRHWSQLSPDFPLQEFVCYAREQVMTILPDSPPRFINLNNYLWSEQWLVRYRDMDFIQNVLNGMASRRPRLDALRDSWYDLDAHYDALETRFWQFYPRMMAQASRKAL" ?
4.2 h

What about this sequence? "MKKRVYLIAAVVSGALAVSGCTTNPYTGEREAGKSAIGAGLGSLVGAGIGALSSSKKDRGKGALIGAAAGAALGGGVGYYMDVQEAKLRDKMRGTGVSVTRSGDNIILNMPNNVTFDSSSATLKPAGANTLTGVAMVLKEYPKTAVNVIGYTDSTGGHDLNMRLSQQRADSVASALITQGVDASRIRTQGLGPANPIASNSTAEGKAQNRRVEITLSPL"
12.6 h

Also MTTPTFDTIEAQASYGIGLQVGQQLSESGLEGLLPEALVAGIADALEGKHPAVPVDVVHRALREIHERADAVRRQRFQAMAAEGVKYLEENAKKEGVNSTESGLQFRVINQGEGAIPARTDRVRVHYTGKLIDGTVFDSSVARGEPAEFPVNGVIPGWIEALTLMPVGSKWELTIPQELAYGERGAGASIPPFSTLVFEVELLEIL [P0A9L3] ?
5.3 h

What about this sequence? "MFNEVHSIHGHTLLLITKSSLQATALLQHLKQSLAITGKLHNIQRSLDDISSGSIILLDMMEADKKLIHYWQDTLSRKNNNIKILLLNTPEDYPYRDIENWPHINGVFYSMEDQERVVNGLQGVLRGECYFTQKLASYLITHSGNYRYNSTESALLTHREKEILNKLRIGASNNEIARSLFISENTVKTHLYNLFKKIAVKNRTQAVSWANDNLRR"
1.84 h

What do you get for "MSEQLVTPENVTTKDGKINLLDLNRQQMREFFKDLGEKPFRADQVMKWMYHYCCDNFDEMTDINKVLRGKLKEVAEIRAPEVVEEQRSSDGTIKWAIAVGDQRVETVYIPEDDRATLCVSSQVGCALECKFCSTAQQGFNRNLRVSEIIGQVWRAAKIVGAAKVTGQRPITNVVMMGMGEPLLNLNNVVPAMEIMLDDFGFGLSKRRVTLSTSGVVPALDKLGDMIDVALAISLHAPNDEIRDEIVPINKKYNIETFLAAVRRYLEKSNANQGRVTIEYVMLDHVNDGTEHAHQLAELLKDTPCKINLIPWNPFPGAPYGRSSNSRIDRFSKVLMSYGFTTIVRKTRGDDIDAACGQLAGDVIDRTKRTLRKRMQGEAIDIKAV" ?
1.88 h

Continue with MSQVSTEFIPTRIAILTVSNRRGEEDDTSGHYLRDSAQEAGHHVVDKAIVKENRYAIRAQVSAWIASDDVQVVLITGGTGLTEGDQAPEALLPLFDREVEGFGEVFRMLSFEEIGTSTLQSRAVAGVANKTLIFAMPGSTKACRTAWENIIAPQLDARTRPCNFHPHLKK [P0AEZ9]
8.21 h

Can you handle MKLFAQGTSLDLSHPHVMGILNVTPDSFSDGGTHNSLIDAVKHANLMINAGATIIDVGGESTRPGAAEVSVEEELQRVIPVVEAIAQRFEVWISVDTSKPEVIRESAKVGAHIINDIRSLSEPGALEAAAETGLPVCLMHMQGNPKTMQEAPKYDDVFAEVNRYFIEQIARCEQAGIAKEKLLLDPGFGFGKNLSHNYSLLARLAEFHHFNLPLLVGMSRKSMIGQLLNVGPSERLSGSLACAVIAAMQGAHIIRVHDVKETVEAMRVVEATLSAKENKRYE [P0AC13] next?
6.23 h

Moving on to "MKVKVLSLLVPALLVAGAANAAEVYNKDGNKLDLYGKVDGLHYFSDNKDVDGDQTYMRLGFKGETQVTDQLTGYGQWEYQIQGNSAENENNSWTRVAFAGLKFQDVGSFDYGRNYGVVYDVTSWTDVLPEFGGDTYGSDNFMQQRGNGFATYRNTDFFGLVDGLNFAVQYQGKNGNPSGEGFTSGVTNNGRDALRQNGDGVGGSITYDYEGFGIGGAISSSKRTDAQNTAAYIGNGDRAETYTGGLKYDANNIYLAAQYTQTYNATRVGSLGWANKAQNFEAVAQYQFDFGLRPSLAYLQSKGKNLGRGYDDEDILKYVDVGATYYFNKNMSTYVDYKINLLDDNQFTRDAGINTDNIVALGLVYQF"
12.4 h

Another sequence: "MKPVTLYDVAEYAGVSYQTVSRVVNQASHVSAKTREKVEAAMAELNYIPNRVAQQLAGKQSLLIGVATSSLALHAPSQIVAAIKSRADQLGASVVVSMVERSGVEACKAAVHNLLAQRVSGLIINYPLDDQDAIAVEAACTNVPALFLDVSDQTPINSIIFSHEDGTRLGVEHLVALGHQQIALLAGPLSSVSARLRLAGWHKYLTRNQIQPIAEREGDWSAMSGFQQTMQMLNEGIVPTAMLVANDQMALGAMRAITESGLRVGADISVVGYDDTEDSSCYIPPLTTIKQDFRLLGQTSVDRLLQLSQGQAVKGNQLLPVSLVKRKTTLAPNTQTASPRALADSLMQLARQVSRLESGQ"
7.76 h
